- Tested on: cholera toxin (CTX) induced net fluid secretion in intestinal loops
- Parameters: species or system mice (CD1 strain)
- Condition Context: mouse, in vivo
Measurement Name: closed loop % inhibition @ 100 μg

Chemical Structure	closed loop % inhibition @ 100 μg
O=C(NCc1ccc(Oc2ccccc2)cc1)c1nc(-c2cc(Br)c(O)c(Br)c2)no1	94.7%
O=C(NCc1cccc(OC(F)(F)F)c1)c1noc(-c2cc(Br)c(O)c(Br)c2)n1	94.6%
O=C(NCc1cccc(OC(F)(F)F)c1)c1noc(-c2cc(Cl)c(O)c(Cl)c2O)n1	62.3%
CC(C)(C)C(=O)CN(Cc1cccc(C(F)(F)F)c1)C(=O)c1nc(-c2cc(Br)c(O)c(Br)c2)no1	87.1%

Now turn to the next molecule.
[Q] Under cholera toxin (CTX) induced net fluid secretion in intestinal loops: closed loop % inhibition @ 100 μg value of "O=C(NCc1cc(F)cc(F)c1)c1noc(-c2cc(Cl)c(O)c(Cl)c2)n1" ?
[A] 51%
